Target: UniProt P21554
Assay: Displacement of [3H]-CP55940 from human CB1 receptor expressed in CHO-K1 cells after 1 hr by liquid scintillation spectrometry
Format: cell-based
Form field: pKi (one value per entry).
For clarity, pKi is expressed as the negative log10 of concentration in mol/L.

>  <compound>
Cc1c(C(=O)NCC2CCC(CNS(C)(=O)=O)CC2)nn(-c2ccc(Cl)cc2Cl)c1-c1ccc(Cl)cc1 (mixture of isomers)

>  <observedMeasurement>
7.26

$$$$
>  <compound>
Cc1c(C(=O)NC[C@H]2CC[C@@H](CNS(C)(=O)=O)CC2)nn(-c2ccc(Cl)cc2Cl)c1-c1ccc(Cl)cc1

>  <observedMeasurement>
7.44

$$$$
>  <compound>
Cc1c(C(=O)NCCCCCCCNS(N)(=O)=O)nn(-c2ccc(Cl)cc2Cl)c1-c1ccc(Cl)cc1

>  <observedMeasurement>
7.31

$$$$

## Input Which value of pKi has been reported for "Cc1c(C(=O)Nc2cc[n+]([O-])cc2)nn(-c2ccc(Cl)cc2Cl)c1-c1ccc(Cl)cc1" in the records?
## Output 6.53

## Input Which value of pKi has been reported for "Cc1c(C(=O)Nc2ccc(C)[n+](C)c2)nn(-c2ccc(Cl)cc2Cl)c1-c1ccc(Cl)cc1" in the records?
## Output 5.77

## Input Which value of pKi has been reported for "Cc1ccc(NC(=O)c2nn(-c3ccc(Cl)cc3Cl)c(-c3ccc(Cl)cc3)c2C)cn1" in the records?
## Output 6.99

## Input Which value of pKi has been reported for "Cc1c(C(=O)Nc2ccncc2)nn(-c2ccc(Cl)cc2Cl)c1-c1ccc(Cl)cc1" in the records?
## Output 7.25

###

Target: Cannabinoid receptor 1 (Homo sapiens)
Assay: Antagonist activity at human CB1 receptor transfected in CHO-K1 cells co-expressing G-alpha-q16 protein assessed as inhibition of G-alpha-q16 protein-mediated intracellular calcium mobilization
Format: functional, cell-based
measurementType: Ke (µM)
All answers are understood in µM, so give the number only.

Sample records with Ke:
>  <compoundString>
Cc1c(C(=O)NCc2cccc(CNS(C)(=O)=O)c2)nn(-c2ccc(Cl)cc2Cl)c1-c1ccc(Cl)cc1

>  <readingUnit>
µM

>  <Ke>
2.83

$$$$
>  <compoundString>
Cc1c(C(=O)NCCCN(C)CCCNS(C)(=O)=O)nn(-c2ccc(Cl)cc2Cl)c1-c1ccc(Cl)cc1

>  <readingUnit>
µM

>  <Ke>
5.34

$$$$

--- query ---
## Input Which value of Ke has been reported for "Cc1c(C(=O)NCc2cccc(CNS(N)(=O)=O)c2)nn(-c2ccc(Cl)cc2Cl)c1-c1ccc(Cl)cc1" in the records?
## Output 4.2

###

Target: Cannabinoid receptor 2 (Homo sapiens)
Sequence (P34972 whole entry): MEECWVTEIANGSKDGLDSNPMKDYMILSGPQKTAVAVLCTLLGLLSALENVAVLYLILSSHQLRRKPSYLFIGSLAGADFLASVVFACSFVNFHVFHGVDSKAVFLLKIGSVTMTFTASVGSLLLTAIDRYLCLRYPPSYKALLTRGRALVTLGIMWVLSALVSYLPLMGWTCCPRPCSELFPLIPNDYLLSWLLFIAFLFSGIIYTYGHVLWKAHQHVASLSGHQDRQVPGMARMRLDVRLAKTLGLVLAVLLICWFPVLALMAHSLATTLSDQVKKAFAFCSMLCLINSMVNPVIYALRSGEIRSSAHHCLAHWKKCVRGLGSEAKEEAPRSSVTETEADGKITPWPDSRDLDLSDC
We label by threshold. Values of Ki strictly beneath 1 µM are Satisfied. Values of 1 µM and up are Not satisfied.

Solved cases below.
>  <compound>
Cc1c(C(=O)NCC2CCC(CNS(C)(=O)=O)CC2)nn(-c2ccc(Cl)cc2Cl)c1-c1ccc(Cl)cc1 (mixture of isomers)

>  <category>
Satisfied

$$$$
>  <compound>
Cc1ccc(NC(=O)c2nn(-c3ccc(Cl)cc3Cl)c(-c3ccc(Cl)cc3)c2C)cn1

>  <category>
Not satisfied

$$$$
>  <compound>
Cc1c(C(=O)Nc2cc[n+]([O-])cc2)nn(-c2ccc(Cl)cc2Cl)c1-c1ccc(Cl)cc1

>  <category>
Not satisfied

$$$$
>  <compound>
Cc1c(C(=O)NCCCCCCCNS(C)(=O)=O)nn(-c2ccc(Cl)cc2Cl)c1-c1ccc(Cl)cc1

>  <category>
Satisfied

$$$$
>  <compound>
Cc1c(C(=O)Nc2ccc(C)[n+](C)c2)nn(-c2ccc(Cl)cc2Cl)c1-c1ccc(Cl)cc1

>  <category>
Not satisfied

$$$$

## Input I wonder whether "Cc1c(C(=O)NC[C@H]2CC[C@@H](CNS(C)(=O)=O)CC2)nn(-c2ccc(Cl)cc2Cl)c1-c1ccc(Cl)cc1" has Ki below 1 µM. Can you tell?
## Output Satisfied

## Input I wonder whether "Cc1c(C(=O)Nc2ccncc2)nn(-c2ccc(Cl)cc2Cl)c1-c1ccc(Cl)cc1" has Ki below 1 µM. Can you tell?
## Output Not satisfied

###

Organism: Homo sapiens
Assay: Selectivity ratio of Ki for human CB2 receptor to Ki for human CB1 receptor
Form field: Ratio Ki (one value per entry).
Form field (numeric): enter value without unit.

Sample records with Ratio Ki:
>  <compoundString>
Cc1c(C(=O)Nc2cc[n+]([O-])cc2)nn(-c2ccc(Cl)cc2Cl)c1-c1ccc(Cl)cc1

>  <observedMeasurement>
15

$$$$
>  <compoundString>
Cc1c(C(=O)Nc2ccncc2)nn(-c2ccc(Cl)cc2Cl)c1-c1ccc(Cl)cc1

>  <observedMeasurement>
31

$$$$
>  <compoundString>
Cc1c(C(=O)NCCCCCCCNS(N)(=O)=O)nn(-c2ccc(Cl)cc2Cl)c1-c1ccc(Cl)cc1

>  <observedMeasurement>
21

$$$$

## Input Which value of Ratio Ki has been reported for "Cc1c(C(=O)Nc2ccc(C)[n+](C)c2)nn(-c2ccc(Cl)cc2Cl)c1-c1ccc(Cl)cc1" in the records?
## Output 1.3

## Input Which value of Ratio Ki has been reported for "Cc1ccc(NC(=O)c2nn(-c3ccc(Cl)cc3Cl)c(-c3ccc(Cl)cc3)c2C)cn1" in the records?
## Output 39

###

Molecular target: Cannabinoid receptor 1 (Homo sapiens)
Assay: Displacement of [3H]-SR141716A from human CB1 receptor expressed in CHO-K1 cells after 1 hr by liquid scintillation counting
Type: cell-based
measurementType: pKi
For clarity, pKi is expressed as the negative log10 of concentration in mol/L.

Sample records with pKi:
>  <compound>
Cc1c(C(=O)Nc2cc[n+]([O-])cc2)nn(-c2ccc(Cl)cc2Cl)c1-c1ccc(Cl)cc1

>  <testedSystem>
Cannabinoid receptor 1 (Homo sapiens)

>  <measurementType>
pKi

>  <observedMeasurement>
7.21

$$$$
>  <compound>
Cc1ccc(NC(=O)c2nn(-c3ccc(Cl)cc3Cl)c(-c3ccc(Cl)cc3)c2C)cn1

>  <testedSystem>
Cannabinoid receptor 1 (Homo sapiens)

>  <measurementType>
pKi

>  <observedMeasurement>
7.59

$$$$
>  <compound>
Cc1c(C(=O)NC[C@H]2CC[C@@H](CNS(C)(=O)=O)CC2)nn(-c2ccc(Cl)cc2Cl)c1-c1ccc(Cl)cc1

>  <testedSystem>
Cannabinoid receptor 1 (Homo sapiens)

>  <measurementType>
pKi

>  <observedMeasurement>
8.10

$$$$

## Input Which value of pKi has been reported for "Cc1c(C(=O)Nc2ccncc2)nn(-c2ccc(Cl)cc2Cl)c1-c1ccc(Cl)cc1" in the records?
## Output 7.89

## Input Which value of pKi has been reported for "Cc1c(C(=O)NCCCCCCCNS(N)(=O)=O)nn(-c2ccc(Cl)cc2Cl)c1-c1ccc(Cl)cc1" in the records?
## Output 7.70

## Input Which value of pKi has been reported for Cc1c(C(=O)NCC2CCC(CNS(C)(=O)=O)CC2)nn(-c2ccc(Cl)cc2Cl)c1-c1ccc(Cl)cc1 (mixture of isomers) in the records?
## Output 7.96

## Input Which value of pKi has been reported for "Cc1c(C(=O)Nc2ccc(C)[n+](C)c2)nn(-c2ccc(Cl)cc2Cl)c1-c1ccc(Cl)cc1" in the records?
## Output 6.10

###

Test system: MDCK
Test: Permeability from apical to basolateral side of MDR1 transfected MDCK cells at 3.16 uM after 1 hr by LC/MS analysis
Assay type: ADME, cell-based, Canis lupus familiaris
Conditions: dog
measurementType: permeability

>  <compoundString>
Cc1c(C(=O)NC[C@H]2CC[C@@H](CNS(C)(=O)=O)CC2)nn(-c2ccc(Cl)cc2Cl)c1-c1ccc(Cl)cc1

>  <permeability>
< 1%

$$$$

--- query ---
## Input Which value of permeability has been reported for "Cc1c(C(=O)NC[C@H]2CC[C@@H](CNS(N)(=O)=O)CC2)nn(-c2ccc(Cl)cc2Cl)c1-c1ccc(Cl)cc1" in the records?
## Output < 1%

###

Form field: Ke (one value per entry).
Biological target: Cannabinoid receptor 1 (Homo sapiens, UniProt P21554)
Sequence (P21554 whole entry): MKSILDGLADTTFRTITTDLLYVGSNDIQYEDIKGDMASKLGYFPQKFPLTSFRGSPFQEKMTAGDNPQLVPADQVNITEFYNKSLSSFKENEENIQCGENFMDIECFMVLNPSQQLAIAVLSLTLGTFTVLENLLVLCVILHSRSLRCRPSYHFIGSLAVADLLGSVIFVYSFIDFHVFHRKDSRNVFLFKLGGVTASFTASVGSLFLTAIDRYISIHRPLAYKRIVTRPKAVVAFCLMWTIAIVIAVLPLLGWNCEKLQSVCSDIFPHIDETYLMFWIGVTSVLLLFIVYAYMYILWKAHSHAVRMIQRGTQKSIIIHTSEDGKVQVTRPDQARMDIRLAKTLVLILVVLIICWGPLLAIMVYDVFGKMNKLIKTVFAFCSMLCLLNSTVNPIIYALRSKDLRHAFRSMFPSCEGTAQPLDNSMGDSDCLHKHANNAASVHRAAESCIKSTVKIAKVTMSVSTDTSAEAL
Test: Antagonist activity at human CB1 receptor transfected in CHO-K1 cells co-expressing G-alpha-q16 protein assessed as inhibition of G-alpha-q16 protein-mediated intracellular calcium mobilization
Type: functional, cell-based
All answers are understood in µM, so give the number only.

>  <compoundString>
Cc1c(C(=O)NCCCCCCCNS(N)(=O)=O)nn(-c2ccc(Cl)cc2Cl)c1-c1ccc(Cl)cc1

>  <Ke [µM]>
0.304

$$$$
>  <compoundString>
Cc1c(C(=O)NCc2ccc(CNS(C)(=O)=O)cc2)nn(-c2ccc(Cl)cc2Cl)c1-c1ccc(Cl)cc1

>  <Ke [µM]>
2.93

$$$$
>  <compoundString>
Cc1c(C(=O)NCc2ccc(CNS(N)(=O)=O)cc2)nn(-c2ccc(Cl)cc2Cl)c1-c1ccc(Cl)cc1

>  <Ke [µM]>
0.376

$$$$

--- query ---
## Input Which value of Ke has been reported for "Cc1c(C(=O)Nc2cc[n+]([O-])cc2)nn(-c2ccc(Cl)cc2Cl)c1-c1ccc(Cl)cc1" in the records?
## Output 1.39

Data provenance is ChEMBL document CHEMBL1833971.
